assay: Selectivity index, ratio of CC50 for African green monkey Vero cells to MIC for Mycobacterium tuberculosis H37Rv; type: toxicity; conditions: read-out: Selectivity Index
observed.property: selectivity ratio
Give bare numbers.

smiles.text: NNC(=O)c1ccncc1
observed.property: selectivity ratio
endpoint.result: 4096

API: the following record is the query input.
Record CO[C@H]1/C=C/O[C@@]2(C)Oc3c(C)c(O)c4c(O)c(c(/C=N/N5CCN(C)CC5)c(O)c4c3C2=O)NC(=O)/C(C)=C\C=C\[C@H](C)[C@H](O)[C@@H](C)[C@@H](O)[C@@H](C)[C@H](OC(C)=O)[C@@H]1C . Reported selectivity ratio: 1024

---

Could you please report measured CC50 at 72 h for the items listed next?
experiment: Cytotoxicity against African green monkey Vero cells after 72 hrs by MTT assay; format: cell-based; details: chlorocebus sabaeus
Answers are plain numbers, in µM.

compound: NNC(=O)c1ccncc1 [ISONIAZID]
observed.property: CC50 at 72 h
endpoint.result: 256

Record CO[C@H]1/C=C/O[C@@]2(C)Oc3c(C)c(O)c4c(O)c(c(/C=N/N5CCN(C)CC5)c(O)c4c3C2=O)NC(=O)/C(C)=C\C=C\[C@H](C)[C@H](O)[C@@H](C)[C@@H](O)[C@@H](C)[C@H](OC(C)=O)[C@@H]1C [RIFAMPIN] . Reported CC50 at 72 h: 512

---

test: Tmax in ICR mouse at 25 mg/kg, po administered as single dose; type: ADME, organism-based; conditions: in vivo
observed.property: Tmax (h)
Answers are plain numbers, in h.

smiles.text: CCOC(=O)c1c(-c2ccc(O)cc2)oc2ccc(O)c(CN3CCCCC3)c12
Tmax (h): 3.46

API: the following record is the query input.
Record CCOC(=O)c1c(-c2ccc(OC)cc2)oc2ccc(OCc3cn(CCN4C(=O)/C(=N/NC(N)=S)c5cc(OC)ccc54)nn3)cc12 . Reported Tmax: 1.24
